All figures here come from ChEMBL document CHEMBL3991601.

target: Protein kinase C theta type (Homo sapiens, UniProt Q04759); note: in the data inactive means no Kd found up to 30 µM
Sequence (Q04759 whole entry): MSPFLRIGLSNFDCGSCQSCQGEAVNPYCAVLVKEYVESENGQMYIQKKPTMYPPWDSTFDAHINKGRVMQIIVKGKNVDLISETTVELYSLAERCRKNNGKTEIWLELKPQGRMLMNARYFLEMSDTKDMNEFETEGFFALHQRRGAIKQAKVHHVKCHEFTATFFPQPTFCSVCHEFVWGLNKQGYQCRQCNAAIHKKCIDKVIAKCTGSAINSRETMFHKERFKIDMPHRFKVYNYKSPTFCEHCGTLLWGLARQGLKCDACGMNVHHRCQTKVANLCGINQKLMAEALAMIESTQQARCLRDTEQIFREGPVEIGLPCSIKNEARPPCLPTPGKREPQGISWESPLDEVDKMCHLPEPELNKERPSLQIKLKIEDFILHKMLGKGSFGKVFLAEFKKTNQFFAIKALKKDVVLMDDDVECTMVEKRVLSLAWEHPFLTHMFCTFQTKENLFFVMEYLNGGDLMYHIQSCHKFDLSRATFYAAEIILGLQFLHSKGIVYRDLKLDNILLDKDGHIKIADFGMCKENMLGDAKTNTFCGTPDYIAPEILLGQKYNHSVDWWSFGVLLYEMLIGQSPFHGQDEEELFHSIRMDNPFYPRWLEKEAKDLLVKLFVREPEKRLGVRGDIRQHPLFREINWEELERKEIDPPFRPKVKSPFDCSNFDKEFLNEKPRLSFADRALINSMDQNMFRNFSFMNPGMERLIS
Structures can show the parent of a compound that is named as a salt. The source made the active and inactive calls.
Your answer must be one of the following: Y for active, N for inactive

The following molecules have reported results that may help.
MOLECULE: CCS(=O)(=O)N1CCN(c2ccc(Nc3ncc(C(N)=O)c(NC4CC4)n3)cc2)CC1 [Cerdulatinib Hydrochloride]
CLASS_LABEL: N
--
MOLECULE: CCS(=O)(=O)c1cccc(-c2cc(C(=O)NC3CCN(C)CC3)c(C)c3[nH]c4ncc(C)cc4c23)c1
CLASS_LABEL: N
--
MOLECULE: C[C@@H](N)c1ccc(C(=O)Nc2ccnc3[nH]ccc23)cc1
CLASS_LABEL: Y
--
MOLECULE: COc1cc([C@@H]2c3cc4c(cc3[C@H](O)[C@H]3COC(=O)[C@@H]23)OCO4)cc(OC)c1OC
CLASS_LABEL: N
--
MOLECULE: CCCCCCCCCCCCCCCCCCOP(=O)([O-])OC1CC[N+](C)(C)CC1
CLASS_LABEL: N
--
MOLECULE: O=C(Nc1cc(C(F)(F)F)cc(C(F)(F)F)c1)c1cc(Cl)ccc1O
CLASS_LABEL: N
--
MOLECULE: CO[C@H]1C[C@@H]2CC[C@@H](C)[C@@](O)(O2)C(=O)C(=O)N2CCCC[C@H]2C(=O)O[C@H]([C@H](C)C[C@@H]2CC[C@@H](OC(=O)C(C)(CO)CO)[C@H](OC)C2)CC(=O)[C@H](C)/C=C(\C)[C@@H](O)[C@@H](OC)C(=O)[C@H](C)C[C@H](C)/C=C/C=C/C=C/1C
CLASS_LABEL: N
--
MOLECULE: Cc1nc(NC(=O)N2CCC[C@H]2C(N)=O)sc1-c1ccnc(C(C)(C)C(F)(F)F)c1
CLASS_LABEL: N

Q. Would you mind telling me which call this test gave `Cc1nc2cc(-c3nn(C(C)C)c4ncnc(N)c34)ccc2o1` ?
A. N

Q. Call for entry `CN(C[C@@H]1COCCO1)S(=O)(=O)Nc1ccc2ccc3ncc(-c4cnn(C)c4)cc3c(=O)c2c1` :
A. N

Q. Recorded test outcome, item `CCn1cc(-c2ccnc3[nH]c(-c4cccc(CN(C)C)c4)cc23)c(-c2ccc(NC(=O)N(C)C)cc2)n1`
A. N

Q. What call does the record list for `CC(C)c1cc(CNc2nc(Nc3cc(C4CC4)[nH]n3)cc(N3CCN(C)CC3)n2)on1` ?
A. N

Q. Give the logged outcome of this assay for the following molecule: C=CC(=O)Nc1cc2c(Nc3ccc(F)c(Cl)c3)ncnc2cc1C#CC(C)(C)N1CCN(C)CC1 [AV-412 FREE BASE]
A. N

Q. Recorded call for `CNC(=O)c1nn(C)c2c1C(C)(C)Cc1cnc(Nc3ccc(N4CCN(C)CC4)cc3)nc1-2` ?
A. N

* * *

Below is a list of entries, each paired with its recorded Kd value.
target: STE20-like serine/threonine-protein kinase (Homo sapiens); note: in the data inactive means no Kd found up to 30 µM
Sequence (Q9H2G2 whole entry): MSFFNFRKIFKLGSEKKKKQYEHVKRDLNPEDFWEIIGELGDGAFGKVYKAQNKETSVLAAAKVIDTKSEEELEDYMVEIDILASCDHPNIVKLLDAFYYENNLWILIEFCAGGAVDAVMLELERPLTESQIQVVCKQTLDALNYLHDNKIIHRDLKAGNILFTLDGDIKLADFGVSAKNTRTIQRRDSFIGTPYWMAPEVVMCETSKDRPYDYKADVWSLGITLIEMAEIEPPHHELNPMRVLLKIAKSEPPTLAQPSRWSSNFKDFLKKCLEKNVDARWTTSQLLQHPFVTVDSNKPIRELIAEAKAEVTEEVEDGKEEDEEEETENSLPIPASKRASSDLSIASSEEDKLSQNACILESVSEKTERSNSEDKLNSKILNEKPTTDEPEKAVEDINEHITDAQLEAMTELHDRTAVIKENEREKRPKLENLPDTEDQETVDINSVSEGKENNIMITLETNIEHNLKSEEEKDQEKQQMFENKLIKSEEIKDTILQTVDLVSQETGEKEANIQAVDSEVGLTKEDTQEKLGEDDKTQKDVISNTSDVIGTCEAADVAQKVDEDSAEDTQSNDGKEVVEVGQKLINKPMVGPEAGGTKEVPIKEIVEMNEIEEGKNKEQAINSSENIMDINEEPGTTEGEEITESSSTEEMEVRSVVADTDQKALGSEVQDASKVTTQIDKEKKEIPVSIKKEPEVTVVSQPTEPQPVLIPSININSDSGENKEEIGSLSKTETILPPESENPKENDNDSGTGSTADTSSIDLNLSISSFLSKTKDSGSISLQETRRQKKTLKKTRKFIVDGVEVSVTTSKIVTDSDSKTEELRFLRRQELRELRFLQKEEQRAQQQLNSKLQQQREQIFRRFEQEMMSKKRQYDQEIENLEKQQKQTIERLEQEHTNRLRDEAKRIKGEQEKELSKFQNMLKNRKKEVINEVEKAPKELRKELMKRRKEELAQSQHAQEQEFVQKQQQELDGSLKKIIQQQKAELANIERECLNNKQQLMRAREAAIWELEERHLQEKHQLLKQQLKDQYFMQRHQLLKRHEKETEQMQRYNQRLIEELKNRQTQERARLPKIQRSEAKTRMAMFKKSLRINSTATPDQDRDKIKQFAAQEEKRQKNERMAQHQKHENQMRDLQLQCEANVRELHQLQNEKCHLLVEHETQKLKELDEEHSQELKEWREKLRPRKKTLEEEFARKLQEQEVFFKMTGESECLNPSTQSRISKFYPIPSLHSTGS
Calls of active or inactive are those of the source.

Q. Would you mind telling me what Kd value was observed for CCOc1cc2ncc(C#N)c(Nc3ccc(F)c(Cl)c3)c2cc1NC(=O)/C=C/CN(C)C [PELITINIB] ?
A. > 30 µM (inactive)

Q. Fill in: Kd of `COCc1c(-c2ccc(NC(=O)Nc3cc(C(F)(F)F)ccc3F)c(F)c2)c2c(N)ncnn2c1CN1CCOCC1` is ___
A. > 30 µM (inactive)

Q. Given Cc1cc(Nc2ncnc3ccc(NC4=NC(C)(C)CO4)cc23)ccc1Oc1ccn2ncnc2c1 [TUCATINIB] , state its recorded Kd.
A. > 30 µM (inactive)

* * *

Record: Kd reported on ATP-dependent RNA helicase DDX42 (Homo sapiens, UniProt Q86XP3).
Sequence (Q86XP3 whole entry): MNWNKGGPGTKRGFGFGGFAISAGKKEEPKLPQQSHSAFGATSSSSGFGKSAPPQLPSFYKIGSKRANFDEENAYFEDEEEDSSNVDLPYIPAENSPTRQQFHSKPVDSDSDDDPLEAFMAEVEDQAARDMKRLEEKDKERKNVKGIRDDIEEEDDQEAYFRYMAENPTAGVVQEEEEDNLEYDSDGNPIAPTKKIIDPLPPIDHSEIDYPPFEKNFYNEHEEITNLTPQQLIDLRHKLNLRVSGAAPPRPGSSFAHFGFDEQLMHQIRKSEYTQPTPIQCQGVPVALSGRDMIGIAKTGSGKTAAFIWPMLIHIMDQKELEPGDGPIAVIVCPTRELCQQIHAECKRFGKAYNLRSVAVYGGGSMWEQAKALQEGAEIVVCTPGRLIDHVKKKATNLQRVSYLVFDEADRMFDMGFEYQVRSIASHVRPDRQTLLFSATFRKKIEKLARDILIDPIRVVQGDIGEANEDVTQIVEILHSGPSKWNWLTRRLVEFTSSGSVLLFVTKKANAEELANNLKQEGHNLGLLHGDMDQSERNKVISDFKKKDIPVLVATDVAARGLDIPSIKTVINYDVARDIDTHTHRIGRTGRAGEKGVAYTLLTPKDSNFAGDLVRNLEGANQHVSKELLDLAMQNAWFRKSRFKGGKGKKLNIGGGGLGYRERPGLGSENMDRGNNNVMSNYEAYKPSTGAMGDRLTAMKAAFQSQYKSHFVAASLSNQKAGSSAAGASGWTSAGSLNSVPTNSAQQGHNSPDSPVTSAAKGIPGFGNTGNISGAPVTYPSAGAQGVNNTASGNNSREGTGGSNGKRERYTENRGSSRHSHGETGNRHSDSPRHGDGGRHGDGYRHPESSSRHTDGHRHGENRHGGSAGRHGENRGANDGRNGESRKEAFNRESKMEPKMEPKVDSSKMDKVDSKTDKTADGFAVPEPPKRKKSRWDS
The source made the active and inactive calls.

CHEM_SMILES: CN(C[C@@H]1COCCO1)S(=O)(=O)Nc1ccc2ccc3ncc(-c4cnn(C)c4)cc3c(=O)c2c1
Kd: > 30 µM (inactive)

CHEM_SMILES: C[C@@H](Oc1cc(-n2cnc3ccc(CN4CCN(C)CC4)cc32)sc1C(N)=O)c1ccccc1C(F)(F)F
Kd: > 30 µM (inactive)

Read the next record carefully.
Q. API: value(readout= Kd, system= ATP-dependent RNA helicase DDX42 (Homo sapiens, UniProt Q86XP3), query= `CCCCCCCCCCCCCCCCCCOP(=O)([O-])OC1CC[N+](C)(C)CC1` ); note: in the data inactive means no Kd found up to 30 µM
A. > 30 µM (inactive)

* * *

target: Protein kinase C alpha type (Homo sapiens, UniProt P17252); note: in the data inactive means no Kd found up to 30 µM
Calls of active or inactive are those of the source.
Your reply should match one of these outcome classes. active, inactive

Answered examples (2):
CHEM_SMILES: C[C@@H](Oc1cc(-n2cnc3ccc(CN4CCN(C)CC4)cc32)sc1C(N)=O)c1ccccc1C(F)(F)F
CLASS_LABEL: inactive

CHEM_SMILES: CCS(=O)(=O)c1cccc(-c2cc(C(=O)NC3CCN(C)CC3)c(C)c3[nH]c4ncc(C)cc4c23)c1
CLASS_LABEL: active

API: the following record is the query input.
Q. Check the results log: what was the call for `Cc1nc2cc(-c3nn(C(C)C)c4ncnc(N)c34)ccc2o1` ?
A. active

* * *

target: Membrane-associated progesterone receptor component 1 (Homo sapiens, UniProt O00264); note: in the data inactive means no Kd found up to 30 µM
Sequence (O00264 whole entry): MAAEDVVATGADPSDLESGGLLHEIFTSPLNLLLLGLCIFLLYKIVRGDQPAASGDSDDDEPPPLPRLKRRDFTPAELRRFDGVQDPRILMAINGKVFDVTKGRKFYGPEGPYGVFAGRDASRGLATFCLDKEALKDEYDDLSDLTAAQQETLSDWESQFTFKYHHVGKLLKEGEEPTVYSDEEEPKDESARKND
Active and inactive are the calls of the source.
Kd by entry:

Solved cases below.
CHEM_SMILES: CO[C@H]1C[C@@H]2CC[C@@H](C)[C@@](O)(O2)C(=O)C(=O)N2CCCC[C@H]2C(=O)O[C@H]([C@H](C)C[C@@H]2CC[C@@H](OP(C)(C)=O)[C@H](OC)C2)CC(=O)[C@H](C)/C=C(\C)[C@@H](O)[C@@H](OC)C(=O)[C@H](C)C[C@H](C)/C=C/C=C/C=C/1C
TEST_TARGET: Membrane-associated progesterone receptor component 1 (Homo sapiens, UniProt O00264); note: in the data inactive means no Kd found up to 30 µM
Kd: > 30 µM (inactive)
//
CHEM_SMILES: C#Cc1cccc(Nc2ncnc3cc(OC)c(OCCCCCCC(=O)NO)cc23)c1
TEST_TARGET: Membrane-associated progesterone receptor component 1 (Homo sapiens, UniProt O00264); note: in the data inactive means no Kd found up to 30 µM
Kd: > 30 µM (inactive)
//
CHEM_SMILES: CCCCCCCCCCCCCCCCCCOP(=O)([O-])OC1CC[N+](C)(C)CC1
TEST_TARGET: Membrane-associated progesterone receptor component 1 (Homo sapiens, UniProt O00264); note: in the data inactive means no Kd found up to 30 µM
Kd: > 30 µM (inactive)
//
CHEM_SMILES: Cc1nc(NC(=O)N2CCC[C@H]2C(N)=O)sc1-c1ccnc(C(C)(C)C(F)(F)F)c1
TEST_TARGET: Membrane-associated progesterone receptor component 1 (Homo sapiens, UniProt O00264); note: in the data inactive means no Kd found up to 30 µM
Kd: > 30 µM (inactive)
//
CHEM_SMILES: CNC(=O)c1nn(C)c2c1C(C)(C)Cc1cnc(Nc3ccc(N4CCN(C)CC4)cc3)nc1-2
TEST_TARGET: Membrane-associated progesterone receptor component 1 (Homo sapiens, UniProt O00264); note: in the data inactive means no Kd found up to 30 µM
Kd: > 30 µM (inactive)

Here is the next item to consider.
Q. # get_value(readout= Kd, system= Membrane-associated progesterone receptor component 1 (Homo sapiens, UniProt O00264)) for `CN1C/C=C/CCOc2cccc(c2)-c2ccnc(n2)Nc2cccc(c2)C1`; note: in the data inactive means no Kd found up to 30 µM
A. > 30 µM (inactive)

* * *

Molecular target: Ephrin type-B receptor 6 (Homo sapiens, UniProt O15197); note: in the data inactive means no Kd found up to 30 µM
Sequence (O15197 whole entry): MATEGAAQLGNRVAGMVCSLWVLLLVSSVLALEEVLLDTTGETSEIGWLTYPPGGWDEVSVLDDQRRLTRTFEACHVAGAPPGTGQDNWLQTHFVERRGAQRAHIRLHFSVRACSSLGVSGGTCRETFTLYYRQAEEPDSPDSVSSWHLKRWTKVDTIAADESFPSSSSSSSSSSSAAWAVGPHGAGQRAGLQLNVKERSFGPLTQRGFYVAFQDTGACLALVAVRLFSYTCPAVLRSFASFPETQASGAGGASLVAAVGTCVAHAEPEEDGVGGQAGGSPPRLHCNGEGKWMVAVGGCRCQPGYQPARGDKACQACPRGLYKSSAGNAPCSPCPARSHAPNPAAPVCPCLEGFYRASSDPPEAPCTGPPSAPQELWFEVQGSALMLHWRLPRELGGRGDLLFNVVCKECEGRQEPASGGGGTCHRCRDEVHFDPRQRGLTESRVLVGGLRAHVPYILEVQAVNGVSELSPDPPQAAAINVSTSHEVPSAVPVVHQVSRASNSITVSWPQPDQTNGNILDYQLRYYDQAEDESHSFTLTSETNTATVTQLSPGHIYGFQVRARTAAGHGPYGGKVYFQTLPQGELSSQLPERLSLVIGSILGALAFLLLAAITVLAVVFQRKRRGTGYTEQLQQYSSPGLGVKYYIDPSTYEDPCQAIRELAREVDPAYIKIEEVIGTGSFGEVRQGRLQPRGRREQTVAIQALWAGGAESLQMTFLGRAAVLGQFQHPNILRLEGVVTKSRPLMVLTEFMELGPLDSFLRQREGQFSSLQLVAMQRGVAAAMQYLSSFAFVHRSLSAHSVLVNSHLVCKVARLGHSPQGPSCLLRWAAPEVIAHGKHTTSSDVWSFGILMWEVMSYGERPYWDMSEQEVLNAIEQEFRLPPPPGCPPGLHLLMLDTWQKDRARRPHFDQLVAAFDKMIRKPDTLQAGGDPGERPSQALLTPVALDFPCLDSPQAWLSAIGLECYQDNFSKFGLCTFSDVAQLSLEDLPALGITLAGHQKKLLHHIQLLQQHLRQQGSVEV
The source made the active and inactive calls.
Respond using exactly one of the listed classes: label 1 = active, label 0 = inactive

Previously resolved entries follow.
COMPOUND: CCn1c(C(=O)N(C2CC2)C2CC2)cc2c3c(ncn3C)c(Nc3cc(C)n(C)n3)nc21 [BMS-911543]
CLASS_LABEL: label 0

COMPOUND: Cc1nc2cc(-c3nn(C(C)C)c4ncnc(N)c34)ccc2o1
CLASS_LABEL: label 0

COMPOUND: CNC(=O)c1cc(Oc2ccc(NC(=O)Nc3cc(C(C)(C)C)nn3-c3ccc4ncccc4c3)c(F)c2)ccn1 [REBASTINIB]
CLASS_LABEL: label 0

COMPOUND: Cc1cc(Nc2ncc(Cl)c(Nc3ccccc3S(=O)(=O)C(C)C)n2)c(OC(C)C)cc1C1CCNCC1 [CERITINIB]
CLASS_LABEL: label 0

COMPOUND: CNC(=O)c1nn(C)c2c1C(C)(C)Cc1cnc(Nc3ccc(N4CCN(C)CC4)cc3)nc1-2 [MILCICLIB]
CLASS_LABEL: label 0

COMPOUND: O=C(Nc1cc(C(F)(F)F)cc(C(F)(F)F)c1)c1cc(Cl)ccc1O [IMD-0354]
CLASS_LABEL: label 0

Q. Which outcome was assigned to `C[C@@H](Oc1cc(C(=O)Nc2ccc(C(=O)N3CCN(C)CC3)cc2)nnc1N)c1c(Cl)ccc(F)c1Cl` in this test?
A. label 0
